# measurementDescription: Human HepG2 cell viability assay in 384 well format
# Assay type: toxicity, cell-based
# Parameters: dose 125 nL, time 70.5 hour; concentration not given beside the values
# appliedConditions: HepG2 cells, read-out: Inhibition
valueKind: cytotoxicity at 70.5 h (%)

> print(dat)
                                    compound               valuekind  observed
 1  COc1cccc(NC(=O)Cc2c(C)nc3c(c2C)c(=O)[nH]n3C)c1  cytotoxicity at 70.5 h      -6.7
 2  CC(=O)N1CCc2c(nc(N(C)C)nc2N(C)CCC2CCCCO2)C1 (stereo unspecified)  cytotoxicity at 70.5 h      11.3
 3  COc1ccc(OC)c(C(O)CN2CCN(C3CCCC3)CC2)c1 (stereo unspecified)  cytotoxicity at 70.5 h     -7.66
 4  Cc1cc(N2CCOC(c3ccncn3)C2)ncn1 (stereo unspecified)  cytotoxicity at 70.5 h   -0.0886
 5  CN1CCC2(COCc3cnc(N4CCOCC4)nc32)C1 (stereo unspecified)  cytotoxicity at 70.5 h     -16.8
 6                  COc1ccnc(N(C)Cc2ccco2)n1  cytotoxicity at 70.5 h      10.4
 7  CCOCCn1c(=O)n(Cc2ccc(F)cc2)c2ncc(C(=O)O)cc21  cytotoxicity at 70.5 h     -4.53
 8  COCCn1c2c(ccc1=O)CC(N)CC2 (stereo unspecified)  cytotoxicity at 70.5 h     -0.36
 9  CCc1nc(CC(=O)N2CCC(C(=O)N3CCCCC3)CC2)cs1  cytotoxicity at 70.5 h     -4.54
10  O=C(NC1CCCC1)NC1CCC(C(=O)N2CCSCC2)CC1 (stereo unspecified)  cytotoxicity at 70.5 h     -9.08
11          COCCN(C)C(=O)Nc1cc2c(cc1SC)OCCO2  cytotoxicity at 70.5 h      10.9
12  OC1(CN2CCN(c3cccc(C(F)(F)F)c3)CC2)CNCCOC1 (stereo unspecified)  cytotoxicity at 70.5 h       -12
13  Cn1cc(CN2C[C@H](Oc3ncccc3F)[C@H]3OCCC[C@H]32)cn1  cytotoxicity at 70.5 h     -10.3
14                   COC(=O)c1ncccc1N1CCCCC1  cytotoxicity at 70.5 h     -6.28
15             NCCc1c(-c2ccccc2)[nH][nH]c1=O  cytotoxicity at 70.5 h     -7.56
16  CN(C)c1cccc(C2CCCN2S(N)(=O)=O)c1 (stereo unspecified)  cytotoxicity at 70.5 h     -1.57
